- Tested on: P. aeruginosa MP-3
- Assay Text: MIC determination by CLSI broth dilution, P. aeruginosa MP-3
- Type: cell-based
- Condition Parameters: Pseudomonas aeruginosa, MP3, strain MP-3
Listing of recorded MIC by entry.

Mol	Target Desc	Result
CO[C@]1(C)C[C@@H](C)CN(C)[C@H]([C@](C)(O)CCN2CCCC2)COC(=O)C(C)(C)C(=O)[C@H](C)[C@H]1O[C@@H]1O[C@H](C)C[C@H](N(C)C)[C@H]1O	P. aeruginosa MP-3	> 32 µg/mL

Entry "CO[C@]1(C)C[C@@H](C)CN(C)[C@@H](CCCN(C)C)COC(=O)C(C)(C)C(=O)[C@H](C)[C@H]1O[C@@H]1O[C@H](C)C[C@H](N(C)C)[C@H]1O" has what MIC?
> 32 µg/mL

Which MIC is reported for this compound? "CCN1C[C@H](C)C[C@@](C)(OC)[C@H](O[C@@H]2O[C@H](C)C[C@H](N(C)C)[C@H]2O)[C@@H](C)C(=O)C(C)(C)C(=O)OC[C@@H]1CN1CCN(C(C)C)CC1"
> 32 µg/mL

###

- System: E. coli MP-4
- Assay Text: MIC determination by CLSI broth dilution, E. coli MP-4
- Format: cell-based
- Condition Parameters: Escherichia coli, MP4, CLSI broth dilution; strain MP-4
Property Name: MIC

Sample records with MIC:
Mol	MIC
CO[C@]1(C)C[C@@H](C)CN(C)[C@@H](CCCN(C)C(C)C)COC(=O)C(C)(C)C(=O)[C@H](C)[C@H]1O[C@@H]1O[C@H](C)C[C@H](N(C)C)[C@H]1O	< 4 µg/mL
CO[C@]1(C)C[C@@H](C)CN(C)[C@H](CC2CCN(Cc3ccco3)CC2)COC(=O)C(C)(C)C(=O)[C@H](C)[C@H]1O[C@@H]1O[C@H](C)C[C@H](N(C)C)[C@H]1O	< 4 µg/mL

Turning to the following molecule.
# input molecule: "CO[C@]1(C)C[C@@H](C)CN(C)[C@@H](CCCN2CCCC2)COC(=O)C(C)(C)C(=O)[C@H](C)[C@H]1O[C@@H]1O[C@H](C)C[C@H](N(C)C)[C@H]1O" ; wanted: its MIC
< 4 µg/mL

###

- Tested on: K. pneumoniae MP-648
- Assay Text: MIC determination by CLSI broth dilution, K. pneumoniae MP-648
- Format: cell-based
- Condition Parameters: Klebsiella pneumoniae, MP648, CLSI broth dilution; strain MP-648
Property Name: MIC

Study these solved cases before continuing.
Molecule	MIC
CO[C@]1(C)C[C@@H](C)CN(C)[C@H](CC2CCN(CC3CC3)CC2)COC(=O)C(C)(C)C(=O)[C@H](C)[C@H]1O[C@@H]1O[C@H](C)C[C@H](N(C)C)[C@H]1O [Compound 57]	< 4 µg/mL
CO[C@]1(C)C[C@@H](C)CN(C)[C@H](CCCN2CCCCC2)COC(=O)C(C)(C)C(=O)[C@H](C)[C@H]1O[C@@H]1O[C@H](C)C[C@H](N(C)C)[C@H]1O [Compound 93]	< 4 µg/mL

Please examine the following record next.
Fill in the blank: the reported MIC of CO[C@]1(C)C[C@@H](C)CN(C)[C@H](CCCN(C)C(C)C)COC(=O)C(C)(C)C(=O)[C@H](C)[C@H]1O[C@@H]1O[C@H](C)C[C@H](N(C)C)[C@H]1O [Compound 12] is ____.
< 4 µg/mL

###

- Test system: E. coli MP-4
- Assay Text: MIC determination by CLSI broth dilution, E. coli MP-4
- Type: cell-based
- Condition Parameters: Escherichia coli, MP4, CLSI broth dilution; strain MP-4
Readings of MIC for the listed compounds

Compound	MIC
CCN1C[C@H](C)C[C@@](C)(OC)[C@H](O[C@@H]2O[C@H](C)C[C@H](N(C)C)[C@H]2O)[C@@H](C)C(=O)C(C)(C)C(=O)OC[C@@H]1CCCN1CCN(C)CC1	< 4 µg/mL
CCCN1CCC(C[C@@H]2COC(=O)C(C)(C)C(=O)[C@H](C)[C@@H](O[C@@H]3O[C@H](C)C[C@H](N(C)C)[C@H]3O)[C@](C)(OC)C[C@@H](C)CN2CCC)CC1	< 4 µg/mL
CO[C@]1(C)C[C@@H](C)CN(C)[C@@H]([C@H](O)C2CCN(CC3CC3)CC2)COC(=O)C(C)(C)C(=O)[C@H](C)[C@H]1O[C@@H]1O[C@H](C)C[C@H](N(C)C)[C@H]1O	4 to 32 µg/mL
CO[C@]1(C)C[C@@H](C)CN(C)[C@H](CC2CCN(CC3CC3)CC2)COC(=O)C(C)(C)C(=O)[C@H](C)[C@H]1O[C@@H]1O[C@H](C)C[C@H](N(C)C)[C@H]1O	< 4 µg/mL
CO[C@]1(C)C[C@@H](C)CN[C@@H](Cc2ccc(O)cc2)COC(=O)[C@H](C)C(=O)[C@H](C)[C@H]1O[C@@H]1OC(C)CC(N(C)C)C1O (stereo partly shown)	> 32 µg/mL
CO[C@]1(C)C[C@@H](C)CN(C)[C@@H](CC2CCN(CC3CC=CCC3)CC2)COC(=O)C(C)(C)C(=O)[C@H](C)[C@H]1O[C@@H]1O[C@H](C)C[C@H](N(C)C)[C@H]1O (stereo partly shown)	< 4 µg/mL
CO[C@]1(C)C[C@@H](C)CN(C)[C@](C)(C[C@H]2C[C@H](N(C)CC3CC3)C2)COC(=O)C(C)(C)C(=O)[C@H](C)[C@H]1O[C@@H]1O[C@H](C)C[C@H](N(C)C)[C@H]1O	< 4 µg/mL
CO[C@]1(C)C[C@@H](C)CN[C@H](CNCc2ccc(F)cn2)COC(=O)[C@H](C)C(=O)[C@H](C)[C@H]1O[C@@H]1O[C@H](C)C[C@H](N(C)C)[C@H]1O	> 32 µg/mL
CO[C@]1(C)C[C@@H](C)CN(C)[C@H](CCCN2CCCC2)COC(=O)C(C)(C)C(=O)[C@H](C)[C@H]1O[C@@H]1O[C@H](C)C[C@H](N(C)C)[C@H]1O	< 4 µg/mL

Entry "CCN(CC)CCC[C@H]1COC(=O)C(C)(C)C(=O)[C@H](C)[C@@H](O[C@@H]2O[C@H](C)C[C@H](N(C)C)[C@H]2O)[C@](C)(OC)C[C@@H](C)CN1C" has what MIC?
< 4 µg/mL

###

- System: K. pneumoniae MP-546
- Assay Text: MIC determination by CLSI broth dilution, K. pneumoniae MP-546
- Type: cell-based
- Condition Parameters: Klebsiella pneumoniae, MP546, CLSI broth dilution; strain MP-546
Property Name: MIC

Illustrative cases are given below, each with its answer.
Molecule	Target Desc	MIC
COC(CN1CCC(C[C@@H]2COC(=O)C(C)(C)C(=O)[C@H](C)[C@@H](O[C@@H]3O[C@H](C)C[C@H](N(C)C)[C@H]3O)[C@](C)(OC)C[C@@H](C)CN2C)CC1)OC [Compound 65]	K. pneumoniae MP-546	< 4 µg/mL
CO[C@]1(C)C[C@@H](C)CN(C)[C@@H](CN2CCN(C(=O)C(C)(C)C)CC2)[C@H](C)OC(=O)C(C)(C)C(=O)[C@H](C)[C@H]1O[C@@H]1O[C@H](C)C[C@H](N(C)C)[C@H]1O [Compound 114]	K. pneumoniae MP-546	> 32 µg/mL
CO[C@]1(C)C[C@@H](C)CN(C)[C@H](CC2CCN(C(C)C)CC2)C(C)(C)OC(=O)C(C)(C)C(=O)[C@H](C)[C@H]1O[C@@H]1O[C@H](C)C[C@H](N(C)C)[C@H]1O [Compound 47]	K. pneumoniae MP-546	4 to 32 µg/mL

MIC for CO[C@]1(C)C[C@@H](C)CN(C)[C@@H](CN2CCN(C(C)=O)CC2)[C@H](C)OC(=O)C(C)(C)C(=O)[C@H](C)[C@H]1O[C@@H]1O[C@H](C)C[C@H](N(C)C)[C@H]1O [Compound 135] ?
> 32 µg/mL

Quick check: MIC of CO[C@]1(C)C[C@@H](C)CN(C)[C@@H](CCCN2CCCCC2)COC(=O)C(C)(C)C(=O)[C@H](C)[C@H]1O[C@@H]1O[C@H](C)C[C@H](N(C)C)[C@H]1O [Compound 83] ?
< 4 µg/mL

Field request: MIC | item: CO[C@]1(C)C[C@@H](C)CN(C)[C@@H](CCCO)COC(=O)C(C)(C)C(=O)[C@H](C)[C@H]1O[C@@H]1O[C@H](C)C[C@H](N(C)C)[C@H]1O [Compound 4]
4 to 32 µg/mL

Suppose we examine the molecule CO[C@]1(C)C[C@@H](C)CN(C)[C@H](CCCN2CCCCC2)COC(=O)C(C)(C)C(=O)[C@H](C)[C@H]1O[C@@H]1O[C@H](C)C[C@H](N(C)C)[C@H]1O [Compound 93] ; what MIC value has been reported?
< 4 µg/mL

I would be grateful if you could share the reported MIC for CO[C@]1(C)C[C@@H](C)CN(C)[C@H]([C@@H](O)C2CCN(C(C)C)CC2)COC(=O)C(C)(C)C(=O)[C@H](C)[C@H]1O[C@@H]1O[C@H](C)C[C@H](N(C)C)[C@H]1O [Compound 27] .
4 to 32 µg/mL

Which MIC reading was recorded for the molecule CO[C@]1(C)C[C@@H](C)CN(C)[C@@H](CCCN(C)C(C)(C)C)COC(=O)C(C)(C)C(=O)[C@H](C)[C@H]1O[C@@H]1O[C@H](C)C[C@H](N(C)C)[C@H]1O [Compound 7] ?
4 to 32 µg/mL

Given the entry CO[C@]1(C)C[C@@H](C)CN(C)[C@H](CCCN2CCCC2)COC(=O)C(C)(C)C(=O)[C@H](C)[C@H]1O[C@@H]1O[C@H](C)C[C@H](N(C)C)[C@H]1O [Compound 161] , report its measured MIC.
< 4 µg/mL

src = patent US12552825B2
